SYSTEM_UNDER_TEST: Prostaglandin E2 receptor EP2 subtype (Homo sapiens) (UniProt P43116)
Sequence (P43116 whole entry, looked up): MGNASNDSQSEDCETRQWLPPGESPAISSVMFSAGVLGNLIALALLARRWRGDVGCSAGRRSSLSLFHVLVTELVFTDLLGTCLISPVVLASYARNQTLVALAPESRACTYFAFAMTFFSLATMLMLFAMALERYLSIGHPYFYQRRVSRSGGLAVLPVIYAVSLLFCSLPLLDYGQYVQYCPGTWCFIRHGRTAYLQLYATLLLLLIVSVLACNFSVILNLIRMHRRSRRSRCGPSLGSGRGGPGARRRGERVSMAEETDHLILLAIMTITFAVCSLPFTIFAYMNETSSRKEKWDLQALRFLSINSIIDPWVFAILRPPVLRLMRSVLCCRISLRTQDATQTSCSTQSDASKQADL
TEST_METHOD_NOTES: EP2 receptor modulators, dose response, cell-based, human EP2, PGE2 EC50 shift (AID 1421)
CONDITION_PARAMETERS: EP2-expressing cells, PGE2 EC50 shift by compound; measured here: PGE2 EC50 at 6.7 uM compound
ENDPOINT_NAME: PGE2 EC50 with compound

CO/N=C/C(=N\Nc1ccccc1)C(=O)c1ccccc1    0.59 nM
COC(=O)c1c(NC(=O)c2ccc(Br)s2)sc2c1CCC2    1.14 nM
O=C(CSCc1cccc(Cl)c1)Nc1ccccc1-c1ccccc1    0.74 nM
CC(Sc1cnc2ccccc2n1)C(=O)O (configuration not stated)    2.61 nM
COc1ccc(C)cc1-n1c(=O)c2ccccc2c2ccccc2c1=O    0.71 nM

Cc1nn(Cc2c(Cl)cccc2Cl)c(C)c1C(=O)NCc1ccc(C)n1C has a reported PGE2 EC50 with compound of 1.18 nM

S=c1[nH]nc(-c2ccc3ccccc3n2)n1Cc1ccccc1 has a reported PGE2 EC50 with compound of 0.91 nM

Cc1sc2ncnc(SCc3ccco3)c2c1C has a reported PGE2 EC50 with compound of 1.33 nM

Cc1ccc(NC2=C(C(=O)c3ccccc3)N(C)S(=O)(=O)c3ccccc32)cc1 has a reported PGE2 EC50 with compound of 1.28 nM

Cc1ccc(C)n1-n1c(C)nc2scc(-c3cccs3)c2c1=O has a reported PGE2 EC50 with compound of 1.02 nM

CCOC(=O)CCN(Cc1sccc1C)S(=O)(=O)c1ccc(F)cc1 has a reported PGE2 EC50 with compound of 1.15 nM

CC1(C)Oc2ccc(C(=O)N3CCOCC3)cc2N(CC(=O)N2CCOCC2)C1=O has a reported PGE2 EC50 with compound of 1.69 nM

COc1c(Cl)cc(Cl)cc1C(=O)n1nc(C)cc1C has a reported PGE2 EC50 with compound of 1.14 nM

CCOC(=O)C(C)Sc1ncc(OC)c(Sc2ccc(Cl)cc2)n1 (configuration not stated) has a reported PGE2 EC50 with compound of 0.67 nM

====

SYSTEM_UNDER_TEST: Prostaglandin E2 receptor EP2 subtype (Homo sapiens)
TEST_METHOD_NOTES: EP2 receptor modulators, dose response, cell-based, human EP2, PGE2 EC50 shift (AID 1421)
CONDITION_PARAMETERS: EP2-expressing cells, PGE2 EC50 shift by compound; measured here: PGE2 EC50 at 6.7 uM compound
Recorded PGE2 EC50 with compound by entry

Below, each entry is followed by its recorded PGE2 EC50 with compound result.
COC(=O)c1c(NC(=O)c2ccccc2N(C)S(=O)(=O)c2ccccc2)sc2c1CCCC2    1.49 nM
CC(NC(c1ccccc1)c1ccccc1)C(=O)N1CCCc2ccccc21 (stereo not given)    1.25 nM
Cc1ccccc1-n1c(Cn2c(=O)sc3ccccc32)nnc1SCC(=O)N1CCCC1    1.05 nM

Test item N#Cc1c(NC(=O)CSc2n[nH]c(Cc3ccccc3)n2)oc(-c2ccccc2)c1-c1ccccc1 ; Prostaglandin E2 receptor EP2 subtype (Homo sapiens); reported PGE2 EC50 with compound was 1.4 nM

Test item O=c1[nH]c(N/N=C/c2ccccc2)nc2ccccc12 ; Prostaglandin E2 receptor EP2 subtype (Homo sapiens); reported PGE2 EC50 with compound was 0.74 nM
